- Test system: Raji
- Method description: Tested in vitro for inhibitory activity against TPA induced Epstein-Barr virus antigen activation in Raji cells (10 mol) for positive control
- Assay type: functional, Homo sapiens
Observed property: EBV antigen activation, % of positive control
Remember to follow the number with its unit.

IN: Please tell me: EBV antigen activation, % of positive control of OCC(O)CO[C@@H]1O[C@@H](CO)[C@H](O)[C@H](O)[C@@H]1O (stereo in doubt; form 1) , system Raji?
OUT: 79.1%

IN: Find the measured EBV antigen activation, % of positive control: item OCC(O)CO[C@@H]1O[C@@H](CO)[C@@H](O)[C@H](O)[C@@H]1O (stereo in doubt; form 1) , target or system Raji.
OUT: 82.5%

IN: Any idea what EBV antigen activation, % of positive control came out for CO[C@@H]1O[C@H](CO)[C@H](O)[C@H](O)[C@H]1O on Raji?
OUT: 93.7%

IN: Query EBV antigen activation, % of positive control on Raji for OCC(O)CO[C@@H]1O[C@@H](CO)[C@H](O)[C@H](O)[C@@H]1O (stereo in doubt; form 2)
OUT: 87.5%

IN: What measured EBV antigen activation, % of positive control is associated with CO[C@@H]1O[C@H](CO)C(O)C(O)[C@H]1O (single isomer, unassigned) on Raji?
OUT: 100%

IN: Reported EBV antigen activation, % of positive control for Raji, given OCC(O)CO[C@@H]1O[C@@H](CO)[C@@H](O)[C@H](O)[C@@H]1O (stereo in doubt; form 2) ?
OUT: 90.4%

IN: Which measured EBV antigen activation, % of positive control belongs to CC(=O)OCC(CO)O[C@@H]1O[C@@H](CO)[C@@H](O)[C@H](O)[C@@H]1O (stereo in doubt; form 2) , tested on Raji?
OUT: 100%

IN: What measured EBV antigen activation, % of positive control is associated with OCC(CO)O[C@@H]1O[C@@H](CO)[C@H](O)[C@H](O)[C@@H]1O (stereo in doubt; form 2) on Raji?
OUT: 100%

IN: Form: Entry = CC(=O)OCC(CO)O[C@@H]1O[C@@H](CO)[C@@H](O)[C@H](O)[C@@H]1O (stereo in doubt; form 1) | System = Raji | EBV antigen activation, % of positive control = ____
OUT: 94.7%
